- method.description: Oral bioavailability studies in fasted beagle dogs
- Type: in vivo
- measurement.conditions: beagle, dog, plasma, po, excipient glycol, dose 40 mg/kg 5U eq., read-out: % Oral Bioavailability of 5U (Mean ± SE)
reported.metric: bioavailability (%)
One number for each entry, in %.

Input: Quickly give me recorded bioavailability for O=C1N(Cc2ccc(CO)cc2)C(Cc2ccccc2)C(O)C(O)C(Cc2ccccc2)N1Cc1ccc(CO)cc1 (stereo not shown)
Output: 5

====

Record form. Attribute: Ki. Fill in for each entry.
- study.system: single-chain tethered dimer of HIV protease (Human immunodeficiency virus 1)
- method.description: biochemical
- Type: biochemical
- Set-up: fused on or other part: A second copy of the same protease unit is joined to the first by a short peptide tether, giving one polypeptide
- measurement.conditions: read-out: HPLC K1; Table 2d; class symbols

Field: example entries. Status: answers known.
O=C1NC(Cc2ccccc2)C(O)C(O)C(Cc2ccccc2)N1CCCCCCO (stereo not drawn) [Example 12C] = < 0.01 µM
O=C1N(CCCCCO)C(Cc2ccccc2)C(O)C(O)C(Cc2ccccc2)N1Cc1ccc(CO)cc1 (stereo not drawn) [Example 15VK] = < 0.01 µM
O=C1N(CCCCCCCCO)C(Cc2ccccc2)C(O)C(O)C(Cc2ccccc2)N1CCCCCCCCO (stereo not drawn) [Example 12K] = 0.01 to 1 µM
CC(O)c1cccc(CN2C(=O)N(Cc3cccc(C(C)O)c3)C(Cc3ccccc3)C(O)C(O)C2Cc2ccccc2)c1 (stereo not drawn) = 0.01 to 1 µM
O=C(O)CCCCCN1C(=O)N(CCCCCC(=O)O)C(Cc2ccccc2)C(O)C(O)C1Cc1ccccc1 (stereo not drawn) [Example 12G] = < 0.01 µM
NCC(=O)Nc1cccc(CN2C(=O)N(Cc3cccc(NC(=O)CN)c3)C(Cc3ccccc3)C(O)C(O)C2Cc2ccccc2)c1 (stereo not drawn) [15R] = < 0.01 µM
O=C1N(Cc2cccc(OCc3ccccc3)c2)C(Cc2ccccc2)C(O)C(O)C(Cc2ccccc2)N1Cc1cccc([N+](=O)[O-])c1 (stereo not drawn) [11P] = < 0.01 µM
CNC(=O)Nc1cccc(CN2C(=O)N(Cc3cccc(NC(=O)NC)c3)C(Cc3ccccc3)C(O)C(O)C2Cc2ccccc2)c1 (stereo not drawn) [15L] = < 0.01 µM
O=C1N(Cc2ccccc2)C(Cc2ccccc2)C(O)C(O)C(Cc2ccccc2)N1Cc1ccccc1 (stereo not drawn) [Example 13Q] = > 1 µM
Nc1cccc(CN2C(=O)N(CC3CC3)C(Cc3ccccc3)C(O)C(O)C2Cc2ccccc2)c1 (stereo not drawn) [15G] = < 0.01 µM

Working through the 6 compounds below one at a time, give Ki for each.
1. CNC(=O)OCCCCCCN1C(=O)N(CCCCCCOC(=O)NC)C(Cc2ccccc2)C(O)C(O)C1Cc1ccccc1 (stereo not drawn) [Example 12W]
2. CSc1cccc(CN2C(=O)N(Cc3cccc(SC)c3)C(Cc3ccccc3)C(O)C(O)C2Cc2ccccc2)c1 (stereo not drawn) [Example 12R]
3. CC(C)NC(=O)c1cccc(CN2C(=O)N(Cc3cccc(C(=O)O)c3)C(Cc3ccccc3)C(O)C(O)C2Cc2ccccc2)c1 (stereo not drawn) [15WN]
4. O=C1N(Cc2cccc(C(O)CO)c2)C(Cc2ccccc2)C(O)C(O)C(Cc2ccccc2)N1Cc1cccc(C(O)CO)c1 (stereo not drawn) [11K]
5. O=C1N(Cc2ccc(CO)cc2)C(Cc2ccccc2)C(O)C(O)C(Cc2ccccc2)N1Cc1ccc(CO)cc1 (stereo not drawn) [10Z]
6. O=C1N(Cc2cccc(I)c2)C(Cc2ccccc2)C(O)C(O)C(Cc2ccccc2)N1Cc1cccc(I)c1 (stereo not drawn) [Example 12J]

Output:
0.01 to 1 µM
< 0.01 µM
< 0.01 µM
< 0.01 µM
> 1 µM
< 0.01 µM
